Here the recorded Ki is given for each entry.
- target_entity: Adenosine receptor A2a (Homo sapiens)
- Sequence (P29274 whole entry): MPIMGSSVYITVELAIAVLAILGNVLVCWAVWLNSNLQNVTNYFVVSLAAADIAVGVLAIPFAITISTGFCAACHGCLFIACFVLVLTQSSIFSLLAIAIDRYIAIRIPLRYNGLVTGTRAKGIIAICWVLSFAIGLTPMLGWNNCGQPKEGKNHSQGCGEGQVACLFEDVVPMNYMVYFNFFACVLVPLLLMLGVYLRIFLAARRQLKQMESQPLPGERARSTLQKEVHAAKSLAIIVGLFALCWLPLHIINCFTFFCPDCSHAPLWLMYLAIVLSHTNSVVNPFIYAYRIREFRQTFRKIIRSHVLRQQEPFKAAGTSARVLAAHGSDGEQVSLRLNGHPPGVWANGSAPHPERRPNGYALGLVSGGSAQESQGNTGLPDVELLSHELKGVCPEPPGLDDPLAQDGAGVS
- experiment_summary: Displacement of [3H]R-PIA or [3H]CGS 21680 from human adenosine A2A receptor in CHO cells
State just the number; it will be interpreted in µM.

Solved cases below.
CNC(=O)C12C[C@@H]1[C@@H](n1cnc3c(NC4CCCC4)ncnc31)[C@H](O)[C@@H]2O (single isomer, unassigned) :: 6.42
CNC(=O)C12C[C@@H]1[C@@H](n1cnc3c(NC4CCCC4)nc(Cl)nc31)[C@H](O)[C@@H]2O (single isomer, unassigned) :: 3.25

Turning now to a further molecule:
Value of measured Ki for the entry OC[C@H]1O[C@@H](n2cnc3c(NC4CCCC4)ncnc32)[C@H](O)[C@@H]1O [N6-CYCLOPENTYLADENOSINE] : 0.462
